For each entry below, report its normalized growth value.
Test: chemical genetic growth profiling, strain panel (AID 1159580);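 also: tested at 20 µM; growth read once vehicle control cultures reached saturation at 30 °C; 1 = growth at the plate median or of vehicle wells; lower values mean less growth of the strain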
Conditions: S. cerevisiae deletion strains, growth OD, locus YLL001W, strain dnm1, stronger effect = lower value
About 2,000 (36%) of roughly 5,500 compounds were called active. Inconclusive results (about 18%) are left out. The list shows a part of the results.
One number for each entry.

Example entries and their recorded answers appear below.
**Q:** Bench note: what normalized growth did CC(=O)c1ccc[nH]1 show?
**A:** 1.01

**Q:** Bench note: what normalized growth did CC(NC(C)(C)C)C(=O)c1cccc(Cl)c1 (stereo not given) show?
**A:** 0.993

**Q:** Bench note: what normalized growth did CN1CCCCC1c1ccc(-c2cccnc2)nc1 (stereo not given) show?
**A:** 1

Give measured normalized growth for every item shown.
1. O=C1c2cccc(O)c2C(=O)c2c(O)cccc21
2. CC12CCC(OC(=O)c3ccccc3)CC1CCc1ccccc12 (stereo not given)
3. CC(=O)NC1C(O)OC(COS(=O)(=O)O)C(OC2OC(C(=O)O)C(OC3OC(CO)C(OC4OC(C(=O)O)C(O)C(O)C4OS(=O)(=O)O)C(OS(=O)(=O)O)C3NS(=O)(=O)O)C(O)C2OS(=O)(=O)O)C1O (stereo not given)
4. O=C(O)C1=C(CSc2nnnn2CS(=O)(=O)O)CS[C@@H]2C(NC(=O)[C@H](O)c3ccccc3)C(=O)N12 (stereo not given in full)
5. COc1ccc(-c2c(O)c3c(OC)c4c(cc3oc2=O)OC(C)(C)C=C4)cc1
6. CC(=O)OC1CCC2(O)CC1(C)CCC1C2CC1(C)C (stereo not given)

**A:**
0.903
1.01
0.975
0.965
0.968
1

Give measured normalized growth for every item shown.
1. CNC(=O)Oc1ccccc1OC(C)C
2. CC1CC(OC(=O)c2ccccc2O)CC(C)(C)C1 (stereo not given)
3. CCCCCCCCCCCCCCCC(=O)OC[C@H](NC(=O)C(Cl)Cl)[C@H](O)c1ccc([N+](=O)[O-])cc1
4. C[N+]12CCC(CC1)C(OC(=O)C(O)(c1ccccc1)c1ccccc1)C2 (stereo not given)

**A:**
0.995
1.01
1.02
0.922

FYI, the data here is from PubChem BioAssay AID1159580.
